- System name: cynomolgus monkey EL (cynomolgus monkey)
- Assay notes: Biacore; EL captured by anti-C2-tag Ab; bivalent fit
Measured parameter: koff (s⁻¹)
Write down the numeric answer in s⁻¹ and omit the unit.

>>> measured_value("h13B3-S2 (antibody, V domains shown) VH: QVQLVQSGAEVKKPGASVKVSCKASGYTFTEYTMHWVRQAPGQGLEWMGSINPYYGGTSYNEKFKDRVTSTRDTSISTAYMELSRLRSDDTVVYYCARYGNYVGYFDYWGQGTTVTVSS VL: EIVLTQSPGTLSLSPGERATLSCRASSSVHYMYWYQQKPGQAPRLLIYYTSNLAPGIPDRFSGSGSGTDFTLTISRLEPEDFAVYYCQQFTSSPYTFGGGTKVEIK")
0.00014

Reported koff for h13B3-S3 (antibody, V domains shown) VH: QVQLVQSGAEVKKPGASVKVSCKASGYTFTEYTMHWVRQAPGQGLEWMGSINPYYGGTSYNEKFKDRVTMTRDTSTSTVYMELSSLRSEDTAVYYCARYGNYVGYFDYWGQGTTVTVSS VL: EIVLTQSPATLSLSPGERATLSCRASSSVHYMYWYQQKPGQAPRLLIYYTSNLAPGIPARFSGSGSGTDFTLTISSLEPEDFAVYYCQQFTSSPYTFGGGTKVEIK was 0.00085

Reported koff for h13B3-S1 (antibody, V domains shown) VH: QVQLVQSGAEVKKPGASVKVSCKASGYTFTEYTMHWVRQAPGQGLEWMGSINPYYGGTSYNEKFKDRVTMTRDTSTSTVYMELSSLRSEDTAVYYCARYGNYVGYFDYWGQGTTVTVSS VL: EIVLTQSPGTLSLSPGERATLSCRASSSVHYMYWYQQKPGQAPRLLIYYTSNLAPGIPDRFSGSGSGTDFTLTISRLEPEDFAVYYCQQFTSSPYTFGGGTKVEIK was 0.00043
